- Test system: OVCAR-3 ovarian
- TEST_PROTOCOL: NCI-60 one-dose screen, 48 h (100 = growth as untreated, 0 = no growth, -100 = all killed)
- DETAILS: 10 µM unless noted
About 83,000 compounds went through this panel and 20% of them were active in at least one assay; those are over-represented in the sample as a whole.
Would you please tag the item True when its growth is 70% or above, and False when it is below?

- COMPOUND: "COc1ccc(C2=NN(c3ccc(S(N)(=O)=O)cc3)C(c3ccc(Cl)cc3)C2)c(O)c1 (stereo unspecified)"
  QUALITATIVE_LABEL: "False"
- COMPOUND: "CC(C)NS(=O)(=O)c1cccc(-c2ccc3c4c(n(CCCN(C)C)c(=O)c3c2)-c2ccccc2C4=O)c1"
  QUALITATIVE_LABEL: "True"
- COMPOUND: "Cc1c(Cl)cccc1NC(=O)c1sc2nc3c(cc2c1N)CN(Cc1ccccc1)CC3"
  QUALITATIVE_LABEL: "False"
- COMPOUND: "O=C(NC[C@H](O)CN1CCc2ccccc2C1)c1cc(NC2COC2)ncn1"
  QUALITATIVE_LABEL: "True"
- COMPOUND: "Cc1cc(C)n(-c2nc(-c3cccs3)c(C#N)c(=O)[nH]2)n1"
  QUALITATIVE_LABEL: "True"
- COMPOUND: "COc1ccccc1N1CCN(CCCOc2ccc(C(=O)/C=C3/C(=O)Nc4ccccc43)cc2)CC1"
  QUALITATIVE_LABEL: "False"
- COMPOUND: "COc1ccc(/C=C(/C(=O)N2CCN(Cc3ccccc3)CC2)c2cc(OC)c(OC)c(OC)c2)cc1O"
  QUALITATIVE_LABEL: "False"
- COMPOUND: "CC1CCN(CCCCCOc2ccc3oc4ccccc4c(=O)c3c2)CC1"
  QUALITATIVE_LABEL: "True"
- COMPOUND: "O=C1NN(c2ccccc2)C(c2ccc(Cl)cc2)N2CCC[C@H]12 (stereo partly specified)"
  QUALITATIVE_LABEL: "True"
- COMPOUND: "C=C1C(=O)O[C@H]2[C@H]1CCC(/C=N/c1ncc(Br)cc1N)=C\\CC[C@@]1(C)O[C@@H]21"
  QUALITATIVE_LABEL: "False"
- COMPOUND: "O=C(/C(=C\\c1c(-c2ccccc2)[nH]c2ccccc12)S(=O)(=O)c1ccccc1)c1ccccc1"
  QUALITATIVE_LABEL: "False"
- COMPOUND: "O=CN1N=C(c2ccc3c(c2)OCO3)CC1c1cccc(Nc2ccnc3cc(C(F)(F)F)ccc23)c1 (stereo unspecified)"
  QUALITATIVE_LABEL: "False"
- COMPOUND: "O=S(=O)(Nc1nccs1)c1ccc(Nc2nc(-c3ccncc3)cs2)cc1"
  QUALITATIVE_LABEL: "True"
- COMPOUND: "CCCn1c2cc(OCc3cn(-c4ccc(Br)cc4)nn3)ccc2c2ccnc(C)c21"
  QUALITATIVE_LABEL: "False"
- COMPOUND: "COC(=O)/C=C1\\SC(=Nc2cccc(OC)c2)N(CCc2c[nH]c3ccccc23)C1=O"
  QUALITATIVE_LABEL: "False"
- COMPOUND: "COc1ccc([C@H]2[C@@H](F)C(=O)N2c2cc(OC)c(OC)c(OC)c2)cc1F"
  QUALITATIVE_LABEL: "False"
- COMPOUND: "COC(=O)CCc1n(Cc2ccc3ccccc3c2)c2ccccc2[n+]1Cc1ccc2ccccc2c1"
  QUALITATIVE_LABEL: "False"
- COMPOUND: "O=c1c2ccccc2n(CC(O)CN2CCCC2)c2c(Br)cccc12 (stereo unspecified)"
  QUALITATIVE_LABEL: "True"
- COMPOUND: "C=C1C(=O)O[C@H]2[C@H]1CC/C(COC(=O)CCCCCCCC(=O)OC/C1=C/CC[C@@]3(C)O[C@H]3[C@H]3OC(=O)C(=C)[C@@H]3CC1)=C\\CC[C@@]1(C)O[C@@H]21"
  QUALITATIVE_LABEL: "False"
- COMPOUND: "O=C(CCCC(=O)Nc1ccc(-n2nnc3cc(Cl)c(Cl)cc32)cc1)Nc1ccc(-n2nnc3cc(Cl)c(Cl)cc32)cc1"
  QUALITATIVE_LABEL: "False"
- COMPOUND: "CCCCCCCc1n(Cc2ccc3ccccc3c2)c2ccccc2[n+]1Cc1ccc2ccccc2c1"
  QUALITATIVE_LABEL: "False"
- COMPOUND: "C[C@H]1[C@H](C)CC[C@]2(C(=O)OCCOCCOCC[P+](c3ccccc3)(c3ccccc3)c3ccccc3)CC[C@]3(C)C(=CC[C@@H]4[C@@]5(C)CC[C@H](OC(=O)C(Cl)Cl)C(C)(C)[C@@H]5CC[C@]43C)[C@H]12"
  QUALITATIVE_LABEL: "False"
- COMPOUND: "COc1ccc(-n2cc(COc3ccc4c5ccnc(C)c5n(CC(C)C)c4c3)nn2)cc1"
  QUALITATIVE_LABEL: "False"
- COMPOUND: "C/C(=N\\NC(=O)c1ccncc1)c1ccc(N)cc1"
  QUALITATIVE_LABEL: "True"
- COMPOUND: "CCCCc1n(Cc2ccc3ccccc3n2)cc[n+]1Cc1ccc2ccccc2c1"
  QUALITATIVE_LABEL: "False"
- COMPOUND: "COc1ccc(C(=O)c2cc(OC)c(C)c(OC)c2)cc1OC(=O)CCl"
  QUALITATIVE_LABEL: "False"
- COMPOUND: "COc1ccc(-c2cn(-c3ccc(Cl)cc3)c(=S)[nH]2)cc1OC"
  QUALITATIVE_LABEL: "True"
- COMPOUND: "Nc1c(C(=O)c2ccccc2)sc2nc(-c3cc4ccccc4o3)cc(-c3ccc(Cl)cc3)c12"
  QUALITATIVE_LABEL: "True"
- COMPOUND: "Nc1c(C(=O)Nc2cccc3ccccc23)sc2nc3c(cc12)COCC3"
  QUALITATIVE_LABEL: "False"
- COMPOUND: "COc1cc(NCC(=O)Nc2cc(Nc3ccc(C)cc3)ncn2)c(Cl)c(OC)c1Cl"
  QUALITATIVE_LABEL: "True"
- COMPOUND: "CCc1ccc(OCc2ccccc2C(=O)Nc2ccc3nc(C)cc(N)c3c2)cc1"
  QUALITATIVE_LABEL: "False"
- COMPOUND: "CCOC(=O)c1cnn(-c2nc(-c3ccc(F)cc3)c(C#N)c(N3CCOCC3)n2)c1N"
  QUALITATIVE_LABEL: "True"
- COMPOUND: "N#Cc1ccc(C2C3=C(CCCC3=O)OC3=C2C(=O)c2ccccc2C3=O)cc1 (stereo unspecified)"
  QUALITATIVE_LABEL: "False"
- COMPOUND: "NC(=O)c1ccc2nc3c(n2c1)C(=O)C(=O)c1ccccc1-3"
  QUALITATIVE_LABEL: "False"
- COMPOUND: "S=C(Nc1ccccc1)c1ccccn1"
  QUALITATIVE_LABEL: "False"
- COMPOUND: "[2H]c1nc(Nc2ncc3cc(C(=O)N(C)C)n(C4CCCC4)c3n2)c([2H])c([2H])c1N1C([2H])([2H])C([2H])([2H])NC([2H])([2H])C1([2H])[2H]"
  QUALITATIVE_LABEL: "True"
